Listing: log10(IC50) of selected compounds
System: HT-29
Experiment: Antiproliferative activity against human HT-29 cells after 48 hrs by MTT assay
Conditions: HT-29, 48 h
assay-endpoint: log10(IC50) (log10 of the value in µg/mL)

1. CCCCCCCCCCCCCCOC(=O)COc1cc(O)c2c(=O)cc(-c3ccccc3)oc2c1: 1.20
2. CCCCCCCCCNC(=O)COc1cc(O)c2c(=O)cc(-c3ccccc3)oc2c1: 1.59
3. CCCCCCCCCCCCCCCCNC(=O)COc1cc(O)c2c(=O)cc(-c3ccccc3)oc2c1: 0.62
4. CCCCCCCCCCCCCCCCCCOC(=O)COc1cc(O)c2c(=O)cc(-c3ccccc3)oc2c1: 1.18
5. CCCCCCCCNC(=O)COc1cc(O)c2c(=O)cc(-c3ccccc3)oc2c1: 1.71
6. CCCCCCCCCCCCCCCCCCCCNC(=O)COc1cc(O)c2c(=O)cc(-c3ccccc3)oc2c1: 1.28
7. CCCCCCNC(=O)COc1cc(O)c2c(=O)cc(-c3ccccc3)oc2c1: 1.83
8. CCCCCCCCCCNC(=O)COc1cc(O)c2c(=O)cc(-c3ccccc3)oc2c1: 1.40
9. CCCCCCCCCCCCCCCCCCNC(=O)COc1cc(O)c2c(=O)cc(-c3ccccc3)oc2c1: 1.04
10. CCCCCCCCCCCCNC(=O)COc1cc(O)c2c(=O)cc(-c3ccccc3)oc2c1: 1.20
11. CCCCCCCCCCCCCCCCCCCCOC(=O)COc1cc(O)c2c(=O)cc(-c3ccccc3)oc2c1: 1.30
12. CCCCCCCCCCCCCCNC(=O)COc1cc(O)c2c(=O)cc(-c3ccccc3)oc2c1: 0.90
13. CCCCCCCCCCOC(=O)COc1cc(O)c2c(=O)cc(-c3ccccc3)oc2c1: 1.49
14. CCCCCCCCOC(=O)COc1cc(O)c2c(=O)cc(-c3ccccc3)oc2c1: 1.71
15. CCCCCCCOC(=O)COc1cc(O)c2c(=O)cc(-c3ccccc3)oc2c1: 1.76
16. CCCCCCCCCCCCCCCCOC(=O)COc1cc(O)c2c(=O)cc(-c3ccccc3)oc2c1: 0.94
17. CCCCCCOC(=O)COc1cc(O)c2c(=O)cc(-c3ccccc3)oc2c1: 1.89
18. CCCCCCCCCOC(=O)COc1cc(O)c2c(=O)cc(-c3ccccc3)oc2c1: 1.63
19. CCCCCCCCCCCCOC(=O)COc1cc(O)c2c(=O)cc(-c3ccccc3)oc2c1: 1.38
20. CCCCCCCNC(=O)COc1cc(O)c2c(=O)cc(-c3ccccc3)oc2c1: 1.81
